- measurement target: R8 (Azospirillum baldaniorum)
- Sequence (A0A9P1JTZ6 19-310): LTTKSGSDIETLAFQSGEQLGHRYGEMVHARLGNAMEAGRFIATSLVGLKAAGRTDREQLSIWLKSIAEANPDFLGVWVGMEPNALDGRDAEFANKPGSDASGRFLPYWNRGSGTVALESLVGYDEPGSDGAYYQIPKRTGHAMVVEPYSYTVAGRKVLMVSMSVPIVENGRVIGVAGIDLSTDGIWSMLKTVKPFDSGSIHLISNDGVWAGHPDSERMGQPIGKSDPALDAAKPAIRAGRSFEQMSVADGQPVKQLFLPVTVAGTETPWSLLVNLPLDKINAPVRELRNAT
- assay comment: ITC
- conditions: read-out: KD (uM) / Quaternary amines / Choline; one binding site model
measurement type: Kd

[ask] Which Kd is listed for C[N+](C)(C)CCO [Choline] ?
[reply] 183 µM

###

- measurement target: R5 (Williamwhitmania taraxaci)
- Sequence (A0A1G6J2J7 34-316 limits assumed): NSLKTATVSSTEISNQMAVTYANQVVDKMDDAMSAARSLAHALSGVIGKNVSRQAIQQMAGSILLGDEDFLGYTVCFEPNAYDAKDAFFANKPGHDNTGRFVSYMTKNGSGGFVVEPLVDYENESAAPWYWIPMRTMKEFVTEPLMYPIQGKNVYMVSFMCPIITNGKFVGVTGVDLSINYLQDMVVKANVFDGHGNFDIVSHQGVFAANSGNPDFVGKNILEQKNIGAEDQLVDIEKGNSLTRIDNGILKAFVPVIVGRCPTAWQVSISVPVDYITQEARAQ
measurement type: pKd
Note on pKd: it is the negative log10 of concentration, concentration in mol/L.

[ask] I am curious: what pKd value has been reported for CN(C)C ?
[reply] 5.92

[ask] Return reported pKd; argument: C[N+](C)(C)CCO
[reply] 5.44

###

- measurement target: R8 (Azospirillum baldaniorum)
- assay comment: ITC
- conditions: read-out: KD (uM) / Methyl-/ethyl-/ethanol amines^* / Methylamine; one binding site model
measurement type: Kd (µM)
Numbers only here, please. The scale is µM.

[ask] Endpoint output: Kd of CN . Value?
[reply] 25.1

###

- measurement target: R3
- assay comment: ITC
- Design: species or system Desulfovibrio inopinatus
- conditions: read-out: KD (uM) / Polyamine / Ethylenediamine; one binding site model
measurement type: Kd (µM)
Kindly answer with a numeric value in µM, unit omitted.

[ask] If you can, please state the reported Kd value of NCCN .
[reply] 29.6

###

measurement type: pKd
Note: pKd values are expressed as the negative base-10 logarithm of concentration in M.

[ask] Hi! What's the reported pKd for CN(C)C [Trimethylamine] on PacA-LBD (Pectobacterium atrosepticum, UniProt Q6D515)?
[reply] 3.95

###

Field: pKd. Provide a value for each of the molecules that follow.
Scale: negative log10 of molar concentration, which is what pKd denotes.

[ask] Give the reported pKd for NCCN (system: R7 (Peptoclostridium litorale, UniProt A0A069RI07)).
Sequence (A0A069RI07 38-318 limits assumed): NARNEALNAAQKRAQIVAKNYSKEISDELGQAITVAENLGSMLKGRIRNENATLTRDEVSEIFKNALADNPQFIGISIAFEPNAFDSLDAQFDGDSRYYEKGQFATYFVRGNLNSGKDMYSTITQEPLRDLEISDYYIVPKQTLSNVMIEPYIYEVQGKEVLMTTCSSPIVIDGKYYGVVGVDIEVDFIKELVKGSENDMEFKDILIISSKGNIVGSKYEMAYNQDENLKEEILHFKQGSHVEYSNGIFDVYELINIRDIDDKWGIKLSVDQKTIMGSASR
[reply] 4.91

[ask] Return pKd measured with R7 (Peptoclostridium litorale, UniProt A0A069RI07) given this molecule: CNC
[reply] 5.28

[ask] Can you look up pKd on R7 (Peptoclostridium litorale, UniProt A0A069RI07) for CN ?
[reply] 4.78

###

- measurement target: R8 (Azospirillum baldaniorum, UniProt A0A9P1JTZ6)
- assay comment: ITC
- conditions: read-out: KD (uM) / Methyl-/ethyl-/ethanol amines^* / Dimethylamine; one binding site model
measurement type: Kd (µM)
Use µM as the unit, but write only the number.

[ask] What does the data say about its Kd? Entry: CNC
[reply] 5.8

###

- measurement target: R8 (Azospirillum baldaniorum, UniProt A0A9P1JTZ6)
- assay comment: ITC
- conditions: read-out: KD (uM) / Methyl-/ethyl-/ethanol amines^* / Trimethylamine; one binding site model
measurement type: Kd (µM)
Quick reminder: number only, in µM, skip the unit.

[ask] Please give the measured Kd for this molecule: CN(C)C
[reply] 24

###

- measurement target: R6 (Oleiharenicola lentus, UniProt A0A4Q1C8G9)
- Sequence (A0A4Q1C8G9 35-324 limits assumed): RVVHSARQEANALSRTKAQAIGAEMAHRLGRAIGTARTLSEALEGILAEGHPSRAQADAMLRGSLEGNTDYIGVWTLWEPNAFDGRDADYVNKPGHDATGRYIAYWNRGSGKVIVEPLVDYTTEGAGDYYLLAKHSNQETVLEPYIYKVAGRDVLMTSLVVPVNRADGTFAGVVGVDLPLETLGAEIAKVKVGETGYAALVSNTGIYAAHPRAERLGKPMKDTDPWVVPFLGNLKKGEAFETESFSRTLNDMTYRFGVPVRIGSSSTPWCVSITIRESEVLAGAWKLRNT
measurement type: Kd (µM)
Supply the numeric figure in µM, leaving out any unit text.

[ask] Record CN(C)C [Trimethylamine] : what is its Kd with R6 (Oleiharenicola lentus, UniProt A0A4Q1C8G9)?
[reply] 151

###

For each record, write down the corresponding Kd.
- measurement target: R1 (Methanosarcina mazei, UniProt Q8PSW1)
- Sequence (Q8PSW1 32-312): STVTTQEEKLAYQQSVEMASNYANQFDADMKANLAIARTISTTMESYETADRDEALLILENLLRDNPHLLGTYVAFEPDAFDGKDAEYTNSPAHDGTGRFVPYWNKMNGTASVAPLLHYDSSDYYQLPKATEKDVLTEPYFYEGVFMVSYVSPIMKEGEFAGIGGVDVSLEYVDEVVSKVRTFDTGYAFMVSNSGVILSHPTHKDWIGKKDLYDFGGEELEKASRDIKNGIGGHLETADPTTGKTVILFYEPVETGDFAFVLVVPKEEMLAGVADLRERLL
Supply the numeric figure in µM, leaving out any unit text.

[ask] Lab note: need Kd for CN on R1 (Methanosarcina mazei, UniProt Q8PSW1), anyone have it?
[reply] 35.1

[ask] What Kd appears in the records for this molecule with R1 (Methanosarcina mazei, UniProt Q8PSW1)? CNC
[reply] 0.53

[ask] Field: Kd (R1 (Methanosarcina mazei, UniProt Q8PSW1)). Entry: CN(C)C
[reply] 10
